Listed next: entries and their corresponding CC50 at 96 h.
test: Cytotoxicity against human MT4 cells assessed as reduction in cell viability incubated for 4 days by MTT assay; format: cell-based

Completed entries (count: 2):
Cc1cc(C#N)cc(C)c1Oc1nc(Nc2ccc(C#N)cc2)nc(N)c1Br
> 4.61 µM
O=C1Nc2ccc(Cl)cc2[C@@](C#CC2CC2)(C(F)(F)F)O1
> 6.34 µM

With those in mind, consider the next compound.
Entry under review: Cc1ccnc2c1NC(=O)c1cccnc1N2C1CC1 . Reported CC50 at 96 h?
> 15 µM

###

biological target: Human immunodeficiency virus type 1 reverse transcriptase (Human immunodeficiency virus 1); assay: Inhibition of recombinant HIV-1 reverse transcriptase p66/p51 incubated for 40 mins by picogreen dye based spectrofluorometric assay
Entries whose IC50 is below 40 nM take true; entries at or above 40 nM take false.

Solved entries (count: 4):
N#Cc1ccc(Nc2nc(Oc3ccc(-c4ccc(C#N)cc4F)cc3)c3sccc3n2)cc1
false
Cc1cc(C#N)ccc1-c1ccc(Oc2nc(Nc3ccc(C#N)cc3)nc3ccsc23)cc1C
true
Cc1cc(-c2ccc(Oc3nc(Nc4ccc(C#N)cc4)nc4ccsc34)cc2C)ccc1C#N
false
Cc1cc(-c2ccc(C#N)cc2F)ccc1Oc1nc(Nc2ccc(C#N)cc2)nc2ccsc12
false

Consider N#Cc1ccc(Nc2nc(Oc3ccc(-c4ccc(C#N)c(Cl)c4)cc3Cl)c3sccc3n2)cc1 . Does its IC50 lie strictly below 40 nM?
true
